Hello, the source for this data is patent US6455587B1, in case you need it.

Recorded measurements of Ki, one per entry
Biological target: recombinant HIV-1 protease (Human immunodeficiency virus type 1 group M subtype B)
Construct: recombinant HIV-1 protease (final concentration 2.18 nM) purchased from Bachem Bioscience; purchased Bachem Bioscience
Test: Enzymatic fluorometric (FRET) assay for determining the inhibition constant (Ki) against HIV protease
Format: biochemical
Settings: fluorometric FRET assay, recombinant HIV-1 protease, pH 4.7, 31° C.; read-out: Ki
quantity: Ki (µM)

1. COC(=O)[C@H](CCCCNS(=O)(=O)c1ccc(Br)cc1)NC(=O)OCC1c2ccccc2-c2ccccc21 [Compound 15]
47
2. CC(C)CN(CCCC[C@H](NC(=O)OCC1c2ccccc2-c2ccccc21)C(=O)O)S(=O)(=O)c1ccc(Br)cc1 [Compound 21]
2
3. Cc1ccc(S(=O)(=O)N(CC(C)C)[C@@H](CO)CCCCNC(=O)OCC2c3ccccc3-c3ccccc32)cc1 [Compound 124]
0.208
4. O=C(N[C@@H](CCCCNS(=O)(=O)c1cccc(C(F)(F)F)c1)C(=O)O)OCC1c2ccccc2-c2ccccc21 [Compound 34]
22

---

Molecular target: recombinant HIV-1 protease (Human immunodeficiency virus type 1 group M subtype B, UniProt P04585)
Construct: recombinant HIV-1 protease (final concentration 2.18 nM) purchased from Bachem Bioscience; purchased Bachem Bioscience
Assay: Enzymatic fluorometric (FRET) assay for determining the inhibition constant (Ki) against HIV protease
Assay type: biochemical
Settings: Ki (nM), fluorometric FRET assay, recombinant HIV-1 protease, pH 4.7, 31° C.
quantity: Ki

1) CC(C)CN([C@@H](CCCCNC(=O)C=Cc1ccccc1[N+](=O)[O-])C(=O)O)S(=O)(=O)c1ccc([N+](=O)[O-])cc1 [Compound 109]
> 300 nM
2) CC(C)CN([C@@H](CCCCNS(=O)(=O)c1ccc([N+](=O)[O-])cc1)C(=O)O)S(=O)(=O)c1ccc([N+](=O)[O-])cc1 [Compound 116]
> 300 nM
3) CC(C)CN([C@@H](CCCCNC(=O)C=Cc1ccc([N+](=O)[O-])cc1)C(=O)O)S(=O)(=O)c1ccc([N+](=O)[O-])cc1 [Compound 111]
34.4 nM
4) CC(C)CN([C@@H](CCCCNC(=O)C=Cc1cccc([N+](=O)[O-])c1)C(=O)O)S(=O)(=O)c1ccc([N+](=O)[O-])cc1 [Compound 108]
> 300 nM

---

Target: recombinant HIV-1 protease (Human immunodeficiency virus type 1 group M subtype B, UniProt P04585)
Construct: recombinant HIV-1 protease (final concentration 2.18 nM) purchased from Bachem Bioscience; purchased Bachem Bioscience
Test: Enzymatic fluorometric (FRET) assay for determining the inhibition constant (Ki) against HIV protease
Type: biochemical
Conditions: fluorometric FRET assay, recombinant HIV-1 protease, pH 4.7, 31° C.; read-out: Ki
pKi: −log10 of the molar value.
We use 7 as the dividing line for pKi: on or above the line is yes, below is no.

1. Cc1ccc(S(=O)(=O)N(CC(C)C)C(CCCCNC(=O)OCC2c3ccccc3-c3ccccc32)C(=O)NO)cc1 (centres unmarked) [Compound 141]
no
2. Nc1ccc(S(=O)(=O)NCCCC[C@H](NC(=O)OCC2c3ccccc3-c3ccccc32)C(=O)O)cc1 [Compound 52]
no
3. Cc1ccc(S(=O)(=O)N(CC(C)C)[C@@H](CCCCNC(=O)CCc2ccc(O)cc2)C(=O)O)cc1 [Compound 126]
no
4. COc1cccc(C=CC(=O)NCCCC[C@@H](C(=O)O)N(CC(C)C)S(=O)(=O)c2ccc([N+](=O)[O-])cc2)c1OC [Compound 110]
no
5. O=C(NCCCC[C@H](NS(=O)(=O)c1ccc(Br)cc1)C(=O)O)OCC1c2ccccc2-c2ccccc21 [Compound 66]
no
6. COc1cccc(CCC(=O)NCCCC[C@@H](C(=O)O)N(CC(C)C)S(=O)(=O)c2ccc(N)cc2)c1OC [Compound 119]
yes
7. CC(C)CN([C@@H](CCCCNC(=O)CCc1c[nH]c2ccccc12)C(=O)O)S(=O)(=O)c1ccc(N)cc1 [Compound 98]
yes
8. CC(C)CN([C@@H](CCCCNC(=O)/C=C/c1cccnc1)C(=O)O)S(=O)(=O)c1ccc([N+](=O)[O-])cc1 [Compound 164]
no
9. O=C(N[C@H](CO)CCCCNS(=O)(=O)c1ccc(Br)cc1)OCC1c2ccccc2-c2ccccc21 [Compound 22]
no
10. Cc1ccc(S(=O)(=O)N(CC(C)C)[C@@H](CCCCNC(=O)C(c2ccccc2)c2ccccc2)C(=O)O)cc1 [Compound 86]
no
11. COC(=O)[C@H](CCCCNC(=O)OCC1c2ccccc2-c2ccccc21)N(CC(C)C)S(=O)(=O)c1ccc(C)cc1 [Compound 123]
no
12. Cc1ccc(S(=O)(=O)N(CC(C)C)[C@@H](CCCCNC(=O)CCc2c[nH]c3ccccc23)C(=O)O)cc1 [Compound 89]
yes
13. CC(C)c1cc(C(C)C)c(S(=O)(=O)NCCCC[C@H](NC(=O)OCC2c3ccccc3-c3ccccc32)C(=O)O)c(C(C)C)c1 [Compound 25]
no
14. CC(C)CN([C@@H](CCCCNC(=O)CCc1c[nH]c2ccccc12)C(=O)O)S(=O)(=O)c1ccc([N+](=O)[O-])cc1 [Compound 95]
yes
